# protocol details: Pharmacokinetics in Cynomolgus monkeys, single subcutaneous or intravenous dose
# Format: in vivo
# condition info: both sexes, cynomolgus monkey, plasma, sc, 190 nmol/kg, single subcutaneous dose 190 nmol/kg, Mean, read-out: CL/F (converted)
*1 amine or outer side, *2 acyl side, *3 side chain or, on linkers, in order; H or OH if unused. [ ]: non-standard residue; d: D form. The star is where a group is joined. C20 diacid = O=C(O)CCCCCCCCCCCCCCCCCCC(=O)*; γGlu = O=C(O)[C@H](CCC(=O)[*:2])N[*:1]; εLys = N[C@@H](CCCCN[*:1])C(=O)[*:2]; αMeL = CC(C)C[C@](C)(N)C(=O)O; AEEA = NCCOCCOCC(=O)O; Aib = CC(C)(N)C(=O)O
assay readout: CL/F

Item: {C20 diacid-εLys-AEEA-γGlu}-GSPSIVTS[αMeL]DVPT[Aib][αMeL]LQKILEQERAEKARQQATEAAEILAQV-NH2 [SEQ ID NO: 25] | CL/F: 12.3 mL/day/kg
